# Tested on: HS 578T breast
# measurement-notes: NCI-60 one-dose screen, 48 h
# conditions: 10 µM unless noted
About 83,000 compounds went through this panel and 20% of them were active in at least one assay; those are over-represented in the sample as a whole. Calls of active or inactive are those of the source. How the source made its calls: active means growth percent below 10; inactive means the rest.
The reply should name one outcome from T = active, F = inactive

Below, 4 compounds whose answers are already recorded.
{"compound": "Cc1c(C(=O)O)nnn1-c1nccs1", "study-system": "HS 578T breast", "class-name": "F"}
{"compound": "O=C(NC(=S)Nc1ccc(-c2nc3ccccc3[nH]2)cc1)c1ccc2ccccc2c1", "study-system": "HS 578T breast", "class-name": "F"}
{"compound": "COc1cc2c(cc1OC)-c1ccc3cc4c(cc3c1N(CCN1CCCC1)C2)OCO4", "study-system": "HS 578T breast", "class-name": "F"}
{"compound": "O=c1[nH]nc(-c2ccc(Cl)cc2)cc1Cc1ccccc1", "study-system": "HS 578T breast", "class-name": "F"}

Shifting focus to the compound that follows.
Q. What call does the record list for CC(C)CCC[C@@H](C)[C@H]1CCC2C3=CCC4C(=O)C=CC(=O)C4C3CC[C@@]21C (stereo not given in full) ?
A. T

Entry source: PubChem BioAssay (NCI)
